# TARGET_OR_TEST_SYSTEM: T1, human CAPRIN-1 protein expressed on cell membrane surfaces of human cancer cells (human, UniProt Q14444 2-709)
# T1 construct: whole, on cells; Endogenous protein on human cancer cells; Flow cytometry was done without permeation of the cell membranes
# T1 sequence (looked up): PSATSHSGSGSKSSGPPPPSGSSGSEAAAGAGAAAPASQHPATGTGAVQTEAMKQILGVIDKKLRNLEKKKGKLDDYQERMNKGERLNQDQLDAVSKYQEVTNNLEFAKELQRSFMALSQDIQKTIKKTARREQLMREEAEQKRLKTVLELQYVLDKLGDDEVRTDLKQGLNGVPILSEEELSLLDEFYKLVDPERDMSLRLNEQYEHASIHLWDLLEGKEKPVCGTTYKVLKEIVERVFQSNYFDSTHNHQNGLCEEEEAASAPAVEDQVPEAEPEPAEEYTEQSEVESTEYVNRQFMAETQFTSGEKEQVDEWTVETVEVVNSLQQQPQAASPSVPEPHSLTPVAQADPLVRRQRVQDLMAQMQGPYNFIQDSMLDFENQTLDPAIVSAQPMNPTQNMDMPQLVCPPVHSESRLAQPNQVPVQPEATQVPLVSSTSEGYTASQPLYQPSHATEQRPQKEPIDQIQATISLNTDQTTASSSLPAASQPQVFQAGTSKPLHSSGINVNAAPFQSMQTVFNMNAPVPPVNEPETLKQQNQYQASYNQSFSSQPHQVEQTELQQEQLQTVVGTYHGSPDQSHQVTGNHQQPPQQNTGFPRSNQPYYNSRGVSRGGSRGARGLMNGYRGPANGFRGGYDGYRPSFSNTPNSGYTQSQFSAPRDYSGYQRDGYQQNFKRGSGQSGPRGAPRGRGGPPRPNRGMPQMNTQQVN
# ASSAY_COMMENT: flow cytometry on cancer cells

BINDER | binding result
anti-CAPRIN-1 antibody (i) (antibody, V domains shown) VH: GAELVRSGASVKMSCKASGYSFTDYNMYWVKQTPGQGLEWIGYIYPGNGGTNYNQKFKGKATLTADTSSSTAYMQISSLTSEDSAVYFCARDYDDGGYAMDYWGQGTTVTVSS VL: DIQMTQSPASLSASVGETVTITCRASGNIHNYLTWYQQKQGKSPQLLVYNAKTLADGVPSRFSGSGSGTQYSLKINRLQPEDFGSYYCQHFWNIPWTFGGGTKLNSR | binds
anti-CAPRIN-1 antibody (a) (antibody, V domains shown) VH: AVTLDESGGGLQMSRGGLSLVCKASGFDFSSYQMNWIRQAPGKGLEFVAAINKFGNSTGHGAAVKGRVTISRDNGQSTVRLQLNNLRAEDTAIYFCTKHAYGYCGSGTWCAAGEIDAWGHGTEVIVSS VL: QAASTQPSSVSANPGETVEITCSGGGSYSYGWFQQKSPGSAPVTVIYYNNKRPSDIPSRFSGSKSGSTGTLTITGVQADDEAVYYCGSGDSTDTAVFGAGTTLTVLG | binds
anti-CAPRIN-1 antibody (ai) (antibody, V domains shown) VH: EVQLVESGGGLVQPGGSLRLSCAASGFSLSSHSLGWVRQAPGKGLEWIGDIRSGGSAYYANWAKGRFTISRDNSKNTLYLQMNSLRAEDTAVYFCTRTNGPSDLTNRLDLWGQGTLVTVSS VL: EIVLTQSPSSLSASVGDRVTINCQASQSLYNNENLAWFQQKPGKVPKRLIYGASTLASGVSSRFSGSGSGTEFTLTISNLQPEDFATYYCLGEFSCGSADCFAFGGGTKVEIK | binds

Each recorded value in this set is attributed to patent EP4640235A1.
